- Tested on: DMS-273
- Method: NCI tumour cell line growth inhibition, 48 h
Activity calls are given as the source filed them. No stated cut-off is given here; in the data, active = GI50 up to about 1.1 µM and inactive = higher.
Respond using exactly one of the listed classes: label 1 = active, label 0 = inactive

Reference set (4 entries):
Molecule	Assayed Target	Class
C[n+]1cn(CC(=O)c2ccccc2)c(C(N)=O)c1N	DMS-273	label 0
COc1ccc(/N=N/C(C(=O)c2ccccc2)C(=O)c2ccccc2)cc1	DMS-273	label 0
COC1CC(O[C@H]2CC[C@@]3(C)C(=CCC4(O)C3CCC35C(=O)OC6(C)O[C@@]43CCC65)C2)OC(C)C1O (some centres undefined)	DMS-273	label 0
O=Cc1[nH]c2ccccc2c1Br	DMS-273	label 0

In this assay, the call recorded for NC(=O)C(=Cc1ccc(C(O)P(=O)(O)O)cc1)C(N)=O (centres undefined) was what?
label 0

Proceed to `Cc1c(C)c(CC(=O)N2CC2)c(C)c(C)c1CC(=O)N1CC1`
label 0

Proceed to `O=C1C=C(c2c(O)ccc3ccccc23)c2ccccc2C1=O`
label 0

Proceed to `COc1cc(C(=O)c2cocc2C(=O)c2ccc3c(c2)OCO3)cc(OC)c1OC`
label 1

Proceed to COc1ccc(C2COc3cc(OC(C)=O)c(OC(C)=O)cc3C2)cc1 (centres undefined)
label 0

Proceed to C/C=C/C[C@@H](C)[C@@H](O)[C@H]1C(=O)N[C@@H](CC)C(=O)N(C)CC(=O)N(C)[C@@H](CC(C)C)C(=O)N[C@@H](C(C)C)C(=O)N(C)[C@@H](CC(C)C)C(=O)N[C@@H](C)C(=O)N[C@H](C)C(=O)N(C)[C@@H](CC(C)C)C(=O)N(C)[C@@H](CC(C)C)C(=O)N(C)[C@@H](C(C)C)C(=O)N1C [CYCLOSPORINE]
label 0

Proceed to `CCCCCCCCCC(=O)CC(=O)c1c(O)cccc1O`
label 0
